tested on: HEK293; assay: Cytotoxic Profiling of Annotated Libraries Using Quantitative High-Throughput Screening (AID 1296008); settings: Five cell lines viability, CellTiter-Glo ATP luminescence, 48-72 h; active compounds read low; further: nearly all actives have a fitted effect of over 60% in size; on max response: on the % scale 0 is the no-effect control and ±100 the full control effect
Inconclusive results are not listed.
Entries and their max response
Provide the reading as a plain figure in %.

// worked examples, max response included
{"compound": "C=C1Cc2c(Cl)cc3[nH]c4c5c3c2[C@@]2(O)[C@@H]1C[C@@H]2C(C)(C)O[C@H]5C1CC[C@@]2(O)[C@@]35O[C@@H]3[C@H]3OC(C)(C)[C@H]3O[C@H]5CC[C@]2(C)[C@@]41C (some centres undefined)", "test_value": 0.456}
{"compound": "O=C(c1c2ccccc2cc2ccccc12)N1CCC(N2CCC[C@@H](C(=O)N3CCOCC3)C2)CC1", "test_value": -10.6}
{"compound": "C/C(=C\\CCC(C)CCO)C(=O)OC[C@H]1O[C@@H](O[C@@H]2OC=C(C(=O)O)[C@H]3CC[C@](C)(O)[C@@H]23)C(O)[C@@H](O)C1O (some centres undefined)", "test_value": 4.12}
{"compound": "CC12CC34CC(O)C5C(CO)(CO)CC(=O)CC5(C)C3CC1C2C4 (centres undefined)", "test_value": -0.711}
{"compound": "C=C1C(O)C(OC(=O)c2ccccc2)C2C(C)(C(=O)O)CCCC2(C)C1CC/C(C)=C\\CO (centres undefined)", "test_value": -1.62}
{"compound": "CC1(C)Oc2ncnc(N)c2N=C1c1ccc(C2CCC(CC(=O)O)CC2)cc1 (centres undefined)", "test_value": 0.549}

Looking up COc1ccc(C(=O)NCc2cc(C(C)C)no2)cc1OC1CCN(C)CC1 , I found its max response recorded as -4.29

Looking up COc1c(C)c(OCC=C(C)C)cc2c1COC2=O , I found its max response recorded as 3.79

Looking up C=C1CC/C=C(/CO)C(=O)C[C@@H]2[C@@H]1C[C@@]2(C)COC(C)=O , I found its max response recorded as -4.3

* * *

system: NIH3T3; test: Cytotoxic Profiling of Annotated Libraries Using Quantitative High-Throughput Screening (AID 1296008); conditions: Five cell lines viability, CellTiter-Glo ATP luminescence, 48-72 h; further: nearly all actives have a fitted effect of over 60% in size
Inconclusive results are not listed. Active and inactive are the calls of the source. The call rests on the fitted dose curve; in most records, active means well fitted inhibition curve with a large enough effect; inconclusive means small, poorly fitted or top-dose-only effect; inactive means flat fitted curve, though single readings scatter.

{"compound": "CC1(C)CC[C@]2(C(=O)O[C@@H]3O[C@H](CO[C@@H]4O[C@H](CO)[C@@H](O)[C@H](O)[C@H]4O)[C@@H](O)[C@H](O[C@@H]4O[C@H](CO)[C@@H](O)[C@H](O)[C@H]4O)[C@H]3O)CC[C@]3(C)C(=CCC4[C@@]5(C)CC[C@H](O[C@@H]6OC[C@@H](O)[C@H](O)[C@H]6O)[C@@](C)(C(=O)O)C5CC[C@]43C)[C@@H]2C1 (stereo partly drawn)", "tested_on": "NIH3T3", "outcome": "inactive"}
{"compound": "OC[C@@]1(O)CO[C@@H](OC[C@H]2O[C@@H](Oc3ccccc3)[C@H](O)[C@@H](O)[C@@H]2O)[C@@H]1O", "tested_on": "NIH3T3", "outcome": "inactive"}
{"compound": "CC/C=C\\CC1C(CC(=O)O)CCC1OC1OC(CO)C(O)C(O)C1O (stereo not drawn)", "tested_on": "NIH3T3", "outcome": "inactive"}
